Procedure Details: Plasma concentration versus time of Compound I and metabolite Compound III in patients dosed QD or BID with Form B of Compound II plus fulvestrant
Format: in vivo, human
Protocol Conditions: human, plasma, oral, 500 mg, 500 mg QD of Form B, Day 1, 4.0 h, Mean; read-out: Compound I Concentration
Readout Type: concentration at 4 h (ng/mL)

[
  {
    "Smiles": "CC(C)N1CCN(c2ccc(Nc3ncc4cc5n(c4n3)C3(CCCCC3)CNC5=O)nc2)CC1",
    "Observed Measurement": 35.4
  }
]

* * *

Procedure Details: Plasma concentration versus time of Compound I and metabolite Compound III in patients dosed QD or BID with Form B of Compound II plus fulvestrant
Assay type: in vivo, human
Protocol Conditions: human, plasma, oral, 500 mg, 500 mg QD of Form B, Day 29, 10.0 h, Median; read-out: Compound I Concentration
Readout Type: concentration at 10 h

[
  {
    "Molecule": "CC(C)N1CCN(c2ccc(Nc3ncc4cc5n(c4n3)C3(CCCCC3)CNC5=O)nc2)CC1 [Compound I]",
    "Observed Measurement": "25.6 ng/mL"
  }
]
